The values you see were collected from the METLIN SMRT retention time set (Domingo-Almenara et al. 2019).

# protocol text: gradient 5% acetonitrile 3 min, to 50% in 2 min, to 85% in 15 min, held 3 min, 100 µL/min
# condition set: column: Zorbax Extend-C18 2.1 x 50 mm; eluents: water / acetonitrile, 0.1% formic acid
experimental endpoint: RP-LC retention time (s)

{"columns": ["compound", "RP-LC retention time, s"],
 "data": [
  ["CCN1C(=O)COc2ccc(-c3noc(C(C)NC(=O)c4ccccc4)n3)cc21 (stereo not drawn)", 856],
  ["COc1ccc(Cl)cc1NS(=O)(=O)c1cc2n(c1)CCN(CC(C)C)C2=O", 868],
  ["O=C(O)COC(=O)Cc1ccccc1Nc1c(Cl)cccc1Cl", 957],
  ["CCN1C(=O)Cc2cc(C(=O)NCc3cccs3)ccc21", 704],
  ["O=C(Cn1cc(-c2ccccc2)c2ncnc(N3CCOCC3)c21)NCc1ccc(Cl)cc1", 778],
  ["O=C(NCc1ccc2c(c1)OCO2)c1nn(-c2ccc(Cl)cc2)nc1CO", 1010],
  ["COC(=O)c1cc(OCC(=O)Nc2ccc(OC)c(Cl)c2)c2cc(OC)ccc2n1", 867],
  ["CN1C2CC(OC(=O)C(CO)c3ccccc3)CC1C1OC12 (stereo not drawn)", 640]
]}
